- Tested on: wild oat (Avena fatua)
- TEST_DETAILS: Test C pre-/postemergence: wild oat
- Type: in vivo
- TEST_SETTINGS: Postemergence, 31 g ai/ha; scale 0 to 100 (0 no effect, 100 complete control)
METRIC_NAME: Plant response rating, Oat, Wild

• CCOc1nn(-c2ccc(Cl)cc2)nc1Cc1ccnc(C(F)(F)F)c1 = 45
• Cc1nn(-c2ccnc(Cl)c2)nc1Cc1ccnc(C(F)(F)F)c1 = 10
• FC(F)Oc1nn(-c2ccc(C(F)(F)F)cc2)nc1Cc1ccnc(C(F)(F)F)c1 = 10
• CCOc1nn(-c2ccc(C(F)(F)F)cc2)nc1Cc1ccnc(C(F)(F)F)c1 = 5
• CCCc1nn(-c2ccc(C(F)(F)F)cc2)nc1Oc1ccnc(C(F)(F)F)c1 = 30
• FC(F)(F)COc1nn(-c2ccc(C(F)(F)F)cc2)nc1Cc1ccnc(C(F)(F)F)c1 = 25
• CCCc1nn(-c2ccc(F)cc2F)nc1Oc1ccnc(C(F)(F)F)c1 = 10
• CCc1nn(-c2ccc(C(F)(F)F)cc2)nc1Oc1ccnc(C(F)(F)F)c1 = 5
• CCOc1nn(-c2ccc(F)cc2)nc1Cc1ccnc(C(F)(F)F)c1 = 55
• CCc1nn(-c2ccc(C(F)(F)F)c(F)c2)nc1Oc1ccnc(C(F)(F)F)c1 = 30

====

- Test system: soybean (Glycine max)
- TEST_DETAILS: Test C pre-/postemergence: soybean
- Format: in vivo
- TEST_SETTINGS: Postemergence, 125 g ai/ha; scale 0 to 100, 0 no effect, 100 complete control
METRIC_NAME: Plant response rating, Soybean

• CCc1nn(-c2ccc(F)c(F)c2)nc1Oc1ccnc(C(F)(F)F)c1 = 40
• CCCc1nn(-c2ccc(F)cc2)nc1Oc1ccnc(C(F)(F)F)c1 = 60
• CCCc1nn(-c2ccc(F)c(F)c2)nc1Oc1ccnc(C(F)(F)F)c1 = 60
• CCCc1nn(-c2ccc(C(F)(F)F)cc2)nc1Oc1ccnc(C(F)(F)F)c1 = 90
• CCOc1nn(-c2ccc(Cl)cc2)nc1Cc1ccnc(C(F)(F)F)c1 = 50
• CCc1nn(-c2ccc(C(F)(F)F)cc2)nc1Cc1ccnc(C(F)(F)F)c1 = 80
• COc1nn(-c2ccc(C(F)(F)F)cc2)nc1Cc1ccnc(C(F)(F)F)c1 = 45
• COc1nn(-c2ccc(C(F)(F)F)cc2)nc1Cc1ccnc(C(F)F)c1 = 80
• Cc1nn(-c2ccc(C(F)(F)F)cn2)nc1Cc1cccc(C(F)(F)F)c1 = 60

====

Recorded Plant response rating, Blackgrass for the following compounds
- System: blackgrass (Alopecurus myosuroides)
- TEST_DETAILS: Test D pre-/postemergence: blackgrass
- Assay type: in vivo
- TEST_SETTINGS: Preemergence; 125 g ai/ha; scale 0 to 100
METRIC_NAME: Plant response rating, Blackgrass

- CCc1nn(-c2ccc(C(F)(F)F)cc2)nc1Cc1ccnc(C(F)(F)F)c1: 70
- CCOc1nn(-c2ccc(F)cc2)nc1Cc1ccnc(C(F)(F)F)c1: 100
- FC(F)(F)COc1nn(-c2ccc(C(F)(F)F)cc2)nc1Cc1ccnc(C(F)(F)F)c1: 10
- Cc1nn(-c2ccc(C(F)(F)F)cc2)nc1Oc1ccnc(C(F)(F)F)c1: 100
- COc1nn(-c2ccc(C(F)(F)F)cc2)nc1Cc1ccnc(C(F)(F)F)c1: 80

FYI, the data here is from patent US9302999B2.
